target: UniProtKB P47871; experiment: Cellular functional assay, cAMP readout: inhibition of glucagon stimulated cAMP
Sequence (P47871 26-477): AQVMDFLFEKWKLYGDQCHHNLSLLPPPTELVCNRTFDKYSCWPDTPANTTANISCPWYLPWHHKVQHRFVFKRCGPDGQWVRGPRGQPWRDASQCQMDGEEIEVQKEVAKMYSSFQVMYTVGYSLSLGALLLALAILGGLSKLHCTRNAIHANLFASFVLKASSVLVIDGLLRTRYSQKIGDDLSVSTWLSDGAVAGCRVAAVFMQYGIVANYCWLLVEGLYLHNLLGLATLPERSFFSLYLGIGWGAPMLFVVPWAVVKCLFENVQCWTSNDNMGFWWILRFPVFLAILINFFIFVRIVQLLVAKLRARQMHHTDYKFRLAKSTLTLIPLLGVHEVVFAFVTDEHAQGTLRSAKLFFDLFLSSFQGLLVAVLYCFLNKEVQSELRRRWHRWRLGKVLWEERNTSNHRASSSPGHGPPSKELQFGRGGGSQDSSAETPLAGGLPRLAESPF
pKi: −log10 of the molar value.
parameter.measured: pKi

The examples below pair each entry with its known result.
I'm curious: which pKi was measured for Cc1cc(C(F)(F)F)ccc1-c1ccc2c(cnn2C(CC(C)C)c2ccc(CNCCC(=O)O)cc2)c1 (stereo not drawn) tested on UniProtKB P47871?
7.07

Same question, CC(C)CC(c1ccc(CNCCC(=O)O)cc1)n1ncc2cc(-c3ccc(OC(F)(F)F)cc3)ccc21 (stereo not drawn) this time
6.55

Same question, Cc1cc(Cl)ccc1-c1ccc2nn(C(CCC3CCCCC3)c3ccc(C(=O)NCCC(=O)O)nc3)cc2c1 (stereo not drawn) this time
7.15

Same question, O=C(O)CCNC(=O)c1ccc(C(CCc2ccccc2)n2ncc3cc(-c4ccc(C(F)(F)F)cc4)ccc32)cc1 (stereo not drawn) this time
6.07

Same question, COCCC(c1ccc(C(=O)NCCC(=O)O)cc1)n1cc2cc(-c3ccc(C(F)(F)F)cc3)ccc2n1 (stereo not drawn) this time
5.96

P = COc1ccc(-c2ccc3c(cnn3C(CC(C)C)c3ccc(CNCCC(=O)O)cc3)c2)cc1 (stereo not drawn)
Q = CC(C)CC(c1ccc(CNCCC(=O)O)cc1)n1ncc2cc(-c3cc(Cl)cc(Cl)c3)ccc21 (stereo not drawn)
R = O=C(O)CCNC(=O)c1ccc(C(CCC2CCCCC2)n2cc3cc(-c4ccc(C(F)(F)F)cc4)ccc3n2)cn1 (stereo not drawn)
S = O=C(O)CCNC(=O)c1ccc(C(CCc2ccccc2)n2cc3cc(-c4ccc(C(F)(F)F)cc4)ccc3n2)cc1 (stereo not drawn)
Please put the entries in order of rising pKi. Please express your ranking as an ordered list of the labels.
Q, P, R, S
(Q: 5.65, P: 6.19, R: 6.56, S: 6.84)
